Cited source for all entries: patent US6706763B1

Reported values of melting point for individual entries

These recorded examples may help you get a feel for the data.
[
  {
    "compound": "COc1ccc(CC(C(N)=O)S(C)(=O)=O)cc1C(=O)NCc1ccc(C(F)(F)F)cc1 (stereo not shown)",
    "melting point": "219 to 220 °C"
  },
  {
    "compound": "COc1ccc(CC(=O)O)cc1C(=O)NCc1ccc(C(F)(F)F)cc1",
    "melting point": "167 to 168 °C"
  },
  {
    "compound": "COc1ccc(C(=O)O)cc1C(=O)NCc1ccc(C(F)(F)F)cc1",
    "melting point": "235.5 to 236.5 °C"
  }
]

Continue with the compound presented below.
Any idea what its melting point is? The compound is COc1ccc(CC(C(N)=O)[S+](C)[O-])cc1C(=O)NCc1ccc(C(F)(F)F)cc1 (stereo not shown)
170 to 171 °C
